- experimental system: beta-catenin-B-cell lymphoma 9 protein complex (Homo sapiens, UniProt P35222)
- Sequence (P35222 whole entry, the tested form may be a part): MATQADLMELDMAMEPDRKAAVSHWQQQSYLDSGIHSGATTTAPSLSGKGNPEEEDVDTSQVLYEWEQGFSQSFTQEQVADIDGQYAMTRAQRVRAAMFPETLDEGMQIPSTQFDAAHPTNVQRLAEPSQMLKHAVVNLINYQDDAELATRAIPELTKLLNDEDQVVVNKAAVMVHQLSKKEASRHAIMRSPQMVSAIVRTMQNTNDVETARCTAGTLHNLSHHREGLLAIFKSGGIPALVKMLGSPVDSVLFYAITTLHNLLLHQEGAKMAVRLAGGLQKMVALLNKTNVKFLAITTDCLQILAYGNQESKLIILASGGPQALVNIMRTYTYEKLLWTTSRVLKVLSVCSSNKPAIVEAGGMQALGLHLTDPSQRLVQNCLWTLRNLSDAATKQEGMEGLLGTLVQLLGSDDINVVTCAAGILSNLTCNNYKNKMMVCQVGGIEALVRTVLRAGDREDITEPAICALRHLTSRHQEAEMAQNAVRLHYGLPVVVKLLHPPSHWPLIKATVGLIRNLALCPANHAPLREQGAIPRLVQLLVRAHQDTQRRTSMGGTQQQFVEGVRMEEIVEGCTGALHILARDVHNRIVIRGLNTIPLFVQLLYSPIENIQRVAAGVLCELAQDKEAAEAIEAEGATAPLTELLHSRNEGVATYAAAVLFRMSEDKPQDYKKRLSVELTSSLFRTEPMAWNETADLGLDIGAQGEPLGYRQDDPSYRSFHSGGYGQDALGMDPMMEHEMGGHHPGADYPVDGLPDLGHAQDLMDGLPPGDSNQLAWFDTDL
- Sequence (O00512 whole entry, further chain, the tested form may be a part): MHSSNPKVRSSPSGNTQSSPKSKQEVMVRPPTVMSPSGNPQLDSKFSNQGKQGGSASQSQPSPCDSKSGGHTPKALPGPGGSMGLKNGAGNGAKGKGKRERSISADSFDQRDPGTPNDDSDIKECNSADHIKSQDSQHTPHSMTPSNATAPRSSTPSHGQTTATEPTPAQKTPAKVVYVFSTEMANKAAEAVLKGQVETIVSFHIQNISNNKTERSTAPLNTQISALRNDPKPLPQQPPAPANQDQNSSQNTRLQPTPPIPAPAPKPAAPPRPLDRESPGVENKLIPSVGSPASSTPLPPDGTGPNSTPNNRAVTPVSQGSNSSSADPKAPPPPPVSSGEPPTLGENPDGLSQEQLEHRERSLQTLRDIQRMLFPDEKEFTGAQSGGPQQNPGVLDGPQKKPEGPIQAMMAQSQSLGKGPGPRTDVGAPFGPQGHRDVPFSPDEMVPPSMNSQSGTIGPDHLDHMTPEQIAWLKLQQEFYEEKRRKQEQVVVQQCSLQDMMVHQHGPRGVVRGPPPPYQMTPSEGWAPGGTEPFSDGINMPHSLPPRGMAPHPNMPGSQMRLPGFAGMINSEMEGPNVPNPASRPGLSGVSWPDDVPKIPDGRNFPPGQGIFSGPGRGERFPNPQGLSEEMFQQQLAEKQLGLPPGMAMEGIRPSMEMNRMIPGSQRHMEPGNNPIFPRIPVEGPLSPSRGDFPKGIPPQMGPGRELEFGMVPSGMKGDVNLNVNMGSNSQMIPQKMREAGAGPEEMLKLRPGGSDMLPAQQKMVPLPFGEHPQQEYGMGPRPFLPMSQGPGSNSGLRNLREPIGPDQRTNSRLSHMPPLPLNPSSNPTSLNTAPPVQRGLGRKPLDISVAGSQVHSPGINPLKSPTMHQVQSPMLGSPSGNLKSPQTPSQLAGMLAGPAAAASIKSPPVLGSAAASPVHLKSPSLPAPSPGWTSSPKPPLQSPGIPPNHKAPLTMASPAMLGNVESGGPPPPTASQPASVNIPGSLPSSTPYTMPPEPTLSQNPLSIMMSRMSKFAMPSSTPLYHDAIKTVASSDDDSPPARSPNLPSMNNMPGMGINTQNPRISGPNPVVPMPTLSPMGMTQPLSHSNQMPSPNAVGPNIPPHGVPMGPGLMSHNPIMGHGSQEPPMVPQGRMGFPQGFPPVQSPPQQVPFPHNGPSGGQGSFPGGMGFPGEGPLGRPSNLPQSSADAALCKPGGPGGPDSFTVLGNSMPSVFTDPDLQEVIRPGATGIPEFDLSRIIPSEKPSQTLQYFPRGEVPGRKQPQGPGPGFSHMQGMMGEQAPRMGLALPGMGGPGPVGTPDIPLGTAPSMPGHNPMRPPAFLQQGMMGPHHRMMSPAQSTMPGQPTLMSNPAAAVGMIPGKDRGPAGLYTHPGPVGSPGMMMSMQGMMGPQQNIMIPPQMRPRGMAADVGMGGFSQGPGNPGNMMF
- experiment description: Inhibition of full length beta-catenin (1 to 781 residues) (unknown origin) expressed in Escherichia coli BL21 (DE3)/N-terminal biotinylated human BCL9 HD2 (350 to 375 residues) protein-protein interaction assessed as inhibition constant incubated for 1 hr by Alphascreen assay
readout type: pKi
// field semantics: pKi = negative decimal log of concentration (mol/L)

CC(C)(C)c1ccc(-c2cc(C(=O)N3CCC(Oc4cc(F)cc(N5CCNCC5)c4)CC3)ccc2O[C@H]2CCNC2)cc1 = 5.00
CNC(=O)c1ccc(N2CCNCC2)cc1OC1CCN(C(=O)c2ccc(O[C@H]3CCNC3)c(C3CCC(C(C)(C)C)CC3)c2)CC1 (mixture of isomers) = 4.42

-- ask # returns recorded pKi (system: beta-catenin-B-cell lymphoma 9 protein complex (Homo sapiens, UniProt P35222)) for CC(C)(C)C1CCC(c2cc(C(=O)N3CCC(Oc4cc(C#N)cc(N5CCNCC5)c4)CC3)ccc2O[C@H]2CCNC2)CC1 (mixture of isomers)
-- reply 5.36
